Recorded measurements of pIC50, one per entry
target: RORc ligand binding domain (Homo sapiens, UniProt P51449); experiment: In vitro RORc ligand binding assay (25-[3H]hydroxycholesterol displacement)
Notebook: values listed as pIC50 are -log10 of the concentration (mol/L).

Task: Bench note: what pIC50 did C[C@H]1CC[C@H](c2ccccc2)S(=O)(=O)N1Cc1cc(F)c([C@]2(c3n[nH]c(=O)o3)C[C@@](C)(O)C2)cc1F [Example 127] show?
Result: 8.14

Task: Try the compound C[C@H]1CC[C@H](c2ccccc2)S(=O)(=O)N1Cc1ccc(C2(C(=O)Nc3ncnn3C)CCOCC2)cc1F [Example 7]
Result: 6.52

Task: And then C[C@H]1CC[C@H](c2ccccc2)S(=O)(=O)N1Cc1cc(F)c([C@]2(c3nc(CO)n[nH]3)C[C@](C)(O)C2)cc1F (racemic) [Example 186] , what is it?
Result: 8.36

====

Target: RORc ligand binding domain (Homo sapiens, UniProt P51449)
Sequence (P51449 269-508 limits assumed): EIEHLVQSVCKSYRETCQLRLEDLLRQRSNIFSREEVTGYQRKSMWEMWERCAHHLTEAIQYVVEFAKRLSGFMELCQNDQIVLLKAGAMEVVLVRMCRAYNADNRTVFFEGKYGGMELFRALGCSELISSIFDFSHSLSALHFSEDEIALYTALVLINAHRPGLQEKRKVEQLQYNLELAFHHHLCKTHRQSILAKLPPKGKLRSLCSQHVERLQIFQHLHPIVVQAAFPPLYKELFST
Test: In vitro RORc ligand binding assay (25-[3H]hydroxycholesterol displacement)
OBSERVABLE: IC50 (nM)
Only the number, expressed in nM, is required.

Here is how some compounds turned out for IC50.
{"COMPOUND": "COC[C@]1(O)C[C@@](c2n[nH]c(=O)o2)(c2cc(F)c(CN3[C@@H](C)CC[C@H](c4ccccc4)S3(=O)=O)cc2F)C1 (racemic)", "IC50 (nM)": 6.4}
{"COMPOUND": "Cc1nnc(NCC2(c3ccc(CN4[C@@H](C)CC[C@H](c5ccccc5)S4(=O)=O)c(F)c3)CCOCC2)o1", "IC50 (nM)": 41.8}

Please look at the following compound next.
Task: Record C[C@H]1CC[C@H](c2ccccc2)S(=O)(=O)N1Cc1cc(F)c(C2(NCc3cc[nH]n3)COC2)cc1F : what is its IC50 with RORc ligand binding domain (Homo sapiens, UniProt P51449)?
Result: 5.7

====

target: RORc ligand binding domain (Homo sapiens, UniProt P51449); experiment: In vitro RORc ligand binding assay (25-[3H]hydroxycholesterol displacement)
# IC50 listing for each entry below
Respond numerically; units are nM and should not be typed.

{"COMPOUND": "CC(=O)OCc1nc(C2(c3ccc(CN4[C@@H](C)CC[C@H](c5ccccc5)S4(=O)=O)c(F)c3)CCOCC2)no1 [Example 27]", "ASSAYED TARGET": "RORc ligand binding domain (Homo sapiens, UniProt P51449)", "IC50 / nM": 109}
{"COMPOUND": "C[C@H]1CC[C@H](c2ccccc2)S(=O)(=O)N1Cc1cc(F)c(C2(NC(=O)c3cnn(C)c3)COC2)cc1F (stereo in doubt) [Example 131]", "ASSAYED TARGET": "RORc ligand binding domain (Homo sapiens, UniProt P51449)", "IC50 / nM": 208}

Task: // returns reported IC50 for input C[C@H]1CC[C@H](c2ccccc2)S(=O)(=O)N1Cc1cc(F)c(C2(c3n[nH]c(=O)o3)CCOCC2)cc1F [Example 58]
Result: 6.6
